Values compiled from the supplement of paper PMC11451515.

- Tested on: P12-Ichikawa
- PROCEDURE_SUMMARY: cell viability relative to DMSO control; higher = less cytotoxic
- CONDITION_SET: HPLM + 10% dialyzed FBS; 48 h; 0.19 µM
Below, each entry is listed with its recorded cell viability.
# value in %; strip the unit string

Reference set (3 entries):
>  <COMPOUND>
COc1ccc([S+](=O)([O-])N(C(C)=O)c2ccccc2/C=C/c2cc[n+]([O-])cc2)cc1

>  <cell viability / %>
118

$$$$
>  <COMPOUND>
NC\1=N\C(=O)N(\C=C1)[C@@H]2O[C@H](CO)[C@@H](O)[C@@H]2O

>  <cell viability / %>
6.11

$$$$
>  <COMPOUND>
COc1ccccc1OCC(O)COC(N)=O (configuration not stated)

>  <cell viability / %>
107

$$$$

Provide value of cell viability for this record tested with P12-Ichikawa: CCc1ccc(CCOc2ccc(CC3SC(=O)NC3=O)cc2)nc1 (configuration not stated) 113

====

- Test system: NOMO1
- PROCEDURE_SUMMARY: cell viability relative to DMSO control; higher = less cytotoxic
- CONDITION_SET: RPMI 5 mM glucose + 10% FBS; 48 h; 0.569 µM
Below, each entry is listed with its recorded cell viability.
# value in %; strip the unit string

Reference set (5 entries):
>  <MOLECULE>
O=C(O)Cn1nnc(-c2cc(N3CCC(Oc4cc(F)ccc4Br)CC3)no2)n1

>  <TARGET_OF_ASSAY>
NOMO1

>  <MEASURED_PARAMETER>
cell viability

>  <OBSERVED_VALUE>
104

$$$$
>  <MOLECULE>
CC(C)N[C@@H]1CCn2c(=O)[nH]c3cccc(c32)[C@H]1O

>  <TARGET_OF_ASSAY>
NOMO1

>  <MEASURED_PARAMETER>
cell viability

>  <OBSERVED_VALUE>
117

$$$$
>  <MOLECULE>
CC(C)(C)NC(=O)Nc1cccc(Nc2ncc(F)c(NC(C)(C)CO)n2)c1

>  <TARGET_OF_ASSAY>
NOMO1

>  <MEASURED_PARAMETER>
cell viability

>  <OBSERVED_VALUE>
120

$$$$
>  <MOLECULE>
CNC(=O)c1ccc(N2C(=S)N(c3cnc(C#N)c(C(F)(F)F)c3)C(=O)C23CCC3)cc1F

>  <TARGET_OF_ASSAY>
NOMO1

>  <MEASURED_PARAMETER>
cell viability

>  <OBSERVED_VALUE>
96.3

$$$$
>  <MOLECULE>
O=C1c2ccccc2-[n+]2ccc3c([nH]c4ccccc43)c21

>  <TARGET_OF_ASSAY>
NOMO1

>  <MEASURED_PARAMETER>
cell viability

>  <OBSERVED_VALUE>
112

$$$$

Provide value of cell viability for this record tested with NOMO1: "N[S+]([O-])(=O)C1=CC=C(NC/2=C/C(=O)C3=CC=CC=C3C2=O)C=C1" 129

Provide value of cell viability for this record tested with NOMO1: "COc1ccc([C@@H]2CC(=O)c3c(O)cc(O[C@@H]4O[C@H](CO[C@@H]5O[C@@H](C)[C@H](O)[C@@H](O)[C@H]5O)[C@@H](O)[C@H](O)[C@H]4O)cc3O2)cc1O" 117

Provide value of cell viability for this record tested with NOMO1: CC1CNc2c(cccc2[S+](=O)([O-])N[C@@H](CCCNC(=N)N)C(=O)N2CC[C@@H](C)C[C@@H]2C(=O)O)C1 (stereo partly specified) 100

Provide value of cell viability for this record tested with NOMO1: "CC1(C)O[C@@H]2C[C@H]3[C@@H]4C[C@H](F)C5=CC(=O)C=C[C@]5(C)[C@@]4(F)[C@@H](O)C[C@]3(C)[C@]2(C(=O)CO)O1" 106

Provide value of cell viability for this record tested with NOMO1: "OC[C@@H](O)[C@@H](O)[C@H](O)[C@@H](O)CO" 107
